target: Human plasma kallikrein (Homo sapiens (Human)); experiment: Determination of the IC50 for Plasma Kallikrein; assay type: biochemical; conditions: 37° C., fluorogenic substrate H-DPro-Phe-Arg-AFC; read-out: IC50 (human PKal)
Sequence (P03952 391-638): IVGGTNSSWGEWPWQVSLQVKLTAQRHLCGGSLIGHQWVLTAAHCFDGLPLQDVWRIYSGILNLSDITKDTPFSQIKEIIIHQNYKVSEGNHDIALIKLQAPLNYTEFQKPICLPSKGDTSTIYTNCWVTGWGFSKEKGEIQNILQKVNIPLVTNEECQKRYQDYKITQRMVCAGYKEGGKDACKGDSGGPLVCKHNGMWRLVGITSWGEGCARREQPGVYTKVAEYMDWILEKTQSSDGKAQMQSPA
Sequence (P03952 20-390 partner): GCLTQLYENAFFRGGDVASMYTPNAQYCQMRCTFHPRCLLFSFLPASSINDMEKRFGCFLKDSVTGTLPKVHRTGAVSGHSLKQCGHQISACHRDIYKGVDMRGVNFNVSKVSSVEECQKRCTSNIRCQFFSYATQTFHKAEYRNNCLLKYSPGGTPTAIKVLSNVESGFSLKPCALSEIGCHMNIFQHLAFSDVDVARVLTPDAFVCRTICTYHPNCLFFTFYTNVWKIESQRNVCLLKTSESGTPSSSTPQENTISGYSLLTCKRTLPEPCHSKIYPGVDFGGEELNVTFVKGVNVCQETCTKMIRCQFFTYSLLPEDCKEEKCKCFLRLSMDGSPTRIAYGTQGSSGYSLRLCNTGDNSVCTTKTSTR
Provide the recorded pIC50 for the entries that follow.
Answers are plain numbers, as −log10 of the molar value.

>  <compound>
Cc1cnn(Cc2ccc(Cn3cc(C(=O)NCc4c(C)cc(CN)cc4C)cn3)cc2)c1 [Example 111]

>  <pIC50>
9.00

$$$$
>  <compound>
Cc1cc(C(=O)NCc2ccc(CN)cc2F)c(C)n1Cc1csc(-c2ccccc2)n1 [Example 47]

>  <pIC50>
7.13

$$$$
>  <compound>
Cc1cc(CN)ccc1CNC(=O)c1cc(C)n(Cc2csc(-c3ccccc3)n2)c1C [Example 2]

>  <pIC50>
7.82

$$$$
>  <compound>
Cc1ccc2cc(Cn3c(C)cc(C(=O)NCc4c(C)cc(CN)cc4C)c3C)ccc2n1 [Example 128]

>  <pIC50>
6.03

$$$$
>  <compound>
Cc1cnn(Cc2ccc(Cn3cnc(C(=O)NCc4c(C)cc(CN)cc4C)c3)cc2)c1 [Example 112]

>  <pIC50>
8.70

$$$$
>  <compound>
Cc1cc(C(=O)NCc2ccc(CN)cc2)c(C)n1Cc1nc2ccccc2s1 [Example 12]

>  <pIC50>
5.29

$$$$
>  <compound>
CCn1c(C(=O)NCc2c(C)cc(CN)cc2C)cc(C)c1Cc1ccc(Cn2ccccc2=O)cc1 [Example 95]

>  <pIC50>
7.80

$$$$
>  <compound>
Cc1ccc2cc(Cn3ncc(C(=O)NCc4c(C)cc(CN)cc4C)c3C)ccc2n1 [Example 125]

>  <pIC50>
8.52

$$$$

Problem: Kindly indicate its recorded pIC50. Item: Cc1cnn(Cc2ccc(Cn3cc(C(=O)NCc4ccc(CN)cc4C)nn3)cc2)c1 [Example 109]
Solution: 8.30
